Test system: HT29
Condition Details: 72 h, relative to DMSO; 10 µM
Structures can show the parent of a compound that is named as a salt.
Please use class 1 for Relative cell viability (%) under 80% and class 0 for everything else, ties included.

| Molecule | Discrete Label |
| --- | --- |
| Cc1c(N)nc([C@H](CC(N)=O)NC[C@H](N)C(N)=O)nc1C(=O)N[C@H](C(=O)N[C@H](C)[C@@H](O)[C@H](C)C(=O)N[C@H](C(=O)NCCc1nc(-c2nc(C(=O)NCCC[S+](C)C)cs2)cs1)[C@@H](C)O)[C@@H](O[C@@H]1O[C@@H](CO)[C@@H](O)[C@H](O)[C@@H]1O[C@H]1O[C@H](CO)[C@@H](O)[C@H](OC(N)=O)[C@@H]1O)c1c[nH]cn1 [Bleomycin Sulfate] | class 1 |
| O=P1(NCCCl)OCCCN1CCCl (stereo not drawn) [Ifosfamide] | class 0 |
| NC(CO)(CO)CO [Trometamol] | class 1 |
| CC[C@H](C)C(=O)O[C@H]1C[C@H](O)C=C2C=C[C@H](C)[C@H](CC[C@@H](O)C[C@@H](O)CC(=O)O)[C@H]21 [Pravastatin sodium] | class 0 |
| CN(C)CCC(c1ccc(Cl)cc1)c1ccccn1 (stereo not drawn) [Chlorpheniramine Maleate] | class 0 |

====

System: HT29
Condition Details: 72 h, relative to DMSO; 10 µM
Where a name gives a salt, the structure may show the parent alone.

| Molecule | Relative cell viability (%) (%) |
| --- | --- |
| CCC(=O)NCC[C@@H]1CCc2ccc3c(c21)CCO3 | 64.95 |
| C[N+]1(C)[C@@H]2C[C@@H](OC(=O)[C@H](CO)c3ccccc3)C[C@H]1[C@@H]1O[C@@H]12 | 132.5 |
| CCc1ccc(CCOc2ccc(CC3SC(=O)NC3=O)cc2)nc1 (stereo not shown) [Pioglitazone HCl] | 158.4 |
| Cc1cncc(CN2CCC(=C3c4ccc(Cl)cc4CCc4cccnc43)CC2)c1 [Rupatadine Fumarate] | 83.98 |

====

Reported Relative cell viability (%) values follow for various compounds
Test system: HT29
Condition Details: 72 h, relative to DMSO; 10 µM
Description: To investigate the key signaling pathways and biological processes involved in CRC progression, we analyzed the National Center for Biotechnology Information Gene Expression Omnibus (GEO) dataset GSE115313, which included 42 CRC and paired normal tissues (Figure 1A). […] Absorbance at the wavelength of 450 nm was measured using an automated microplate spectrophotometer (BioTek Instruments, Winooski, VT, USA).
Structures can show the parent of a compound that is named as a salt. Starred links: 1 amine or outer side, 2 acyl side, 3 side chain; linkers in the order of their positions; H or OH if unused. Positions of bridges follow the written chain, without caps; N, C: chain ends. Non-standard residues stand in square brackets, D forms with d. Residues, ends and D or L forms follow the SMILES beside them. *: point of attachment. pTerphenylCO(4''-OnC5H11) = CCCCCOc1ccc(-c2ccc(-c3ccc(C(=O)*)cc3)cc2)cc1; Orn(4R-OH,5R-OH) = O=C([C@H](C[C@@H](O)[C@@H](O)N[*:3])N[*:1])[*:2]; hTyr(3S-OH,4S-OH) = N[C@H](C(=O)O)[C@H](O)[C@@H](O)c1ccc(O)cc1; Pro(3S-OH,4S-Me) = C[C@H]1CN[C@H](C(=O)O)[C@H]1O; Hyp = O=C(O)[C@@H]1C[C@@H](O)CN1

| Compound | Relative cell viability (%) / % |
| --- | --- |
| Cc1cccc(-c2nn3c(c2-c2ccnc4ccc(C(N)=O)cc24)CCC3)n1 [LY2157299] | 106.7 |
| CCCCCCCN(CC)CCCC(O)c1ccc(NS(C)(=O)=O)cc1 (stereo not drawn) [Ibutilide Fumarate] | 112 |
| O=c1ccc2ccccc2o1 [Coumarin] | 71.21 |
| CCCCCOc1ccc(-c2ccc(-c3ccc(C(=O)N[C@H]4C[C@@H](O)[C@@H](O)NC(=O)[C@@H]5[C@@H](O)[C@@H](C)CN5C(=O)[C@H]([C@@H](C)O)NC(=O)[C@H]([C@H](O)[C@@H](O)c5ccc(O)cc5)NC(=O)[C@@H]5C[C@@H](O)CN5C(=O)[C@H]([C@@H](C)O)NC4=O)cc3)cc2)cc1 [Anidulafungin (LY303366)] ({pTerphenylCO(4''-OnC5H11)}-[Orn(4R-OH,5R-OH)]T[Hyp][hTyr(3S-OH,4S-OH)]T[Pro(3S-OH,4S-Me)]; lactam 1-C) | 71.21 |
| CCCC(CCC)C(=O)O[C@H]1C[C@H]2CC[C@@H](C1)[N+]2(C)C [Anisotropine Methylbromide] | 55.76 |
| Nc1ncn([C@@H]2O[C@H](CO)[C@@H](O)[C@H]2O)c(=O)n1 [Azacitidine] | 56.36 |
| Cc1cccc(N(C)C(=S)Oc2ccc3ccccc3c2)c1 [Tolnaftate] | 126.1 |
| Cc1cnc(NC(=O)C2=C(O)c3ccccc3S(=O)(=O)N2C)s1 [Meloxicam] | 51.27 |
| CC(C)[C@H](N)C(=O)OCCOCn1cnc2c(=O)[nH]c(N)nc21 [Valaciclovir HCl] | 85.59 |
| CC(C(=O)O)c1ccc2c(c1)CC(=O)c1ccccc1S2 (stereo not drawn) [Zaltoprofen] | 88.35 |
| O=C(O)Cc1cc(I)c(Oc2ccc(O)c(I)c2)c(I)c1 [Tiratricol] | 83.03 |
| CC(C)C(=O)Oc1ccc(CO)cc1[C@H](CCN(C(C)C)C(C)C)c1ccccc1 [Fesoterodine Fumarate] | 112.6 |
| C[C@H]1O[C@@H](n2cc(F)c(=O)[nH]c2=O)[C@H](O)[C@@H]1O [Doxifluridine] | 150.2 |
| COc1cc([C@H]2Oc3cc([C@H]4Oc5cc(O)cc(O)c5C(=O)[C@@H]4O)ccc3O[C@@H]2CO)ccc1O [Silibinin] | 119.6 |
| CCc1cnn2c(NCc3ccc[n+]([O-])c3)cc(N3CCCC[C@H]3CCO)nc12 [Dinaciclib (SCH727965)] | 33.01 |
| COc1cccc2c1C(=O)c1c(O)c3c(c(O)c1C2=O)C[C@@](O)(C(C)=O)C[C@@H]3O[C@H]1C[C@H](N)[C@H](O)[C@H](C)O1 [Daunorubicin HCl] | 12.62 |
| N[C@@H]1CN(c2c(F)cc3c(=O)c(C(=O)O)cn([C@@H]4C[C@@H]4F)c3c2Cl)CC12CC2 [Sitafloxacin Hydrate] | 126.1 |
| C=CC[C@@H]1/C=C(\C)C[C@H](C)C[C@H](OC)[C@H]2O[C@@](O)(C(=O)C(=O)N3CCCC[C@H]3C(=O)O[C@H](/C(C)=C/[C@@H]3CC[C@@H](O)[C@H](OC)C3)[C@H](C)[C@@H](O)CC1=O)[C@H](C)C[C@@H]2OC [Tacrolimus (FK506)] | 102.1 |
| CCOC(=O)c1ccc(N)cc1 [Benzocaine] | 80.303 |
| Cc1nnc(C(=O)NC(C)(C)c2nc(C(=O)NCc3ccc(F)cc3)c(O)c(=O)n2C)o1 [Raltegravir (MK-0518)] | 181.8 |
| S=C(NCc1ccc2c(c1)OCO2)N1CCN(c2ncnc3c2oc2ccccc23)CC1 [Amuvatinib (MP-470)] | 66.51 |
| NC(N)=Nc1nc(CSCCC(N)=NS(N)(=O)=O)cs1 [Famotidine] | 119.6 |
| CN1CCN2c3ccccc3Cc3ccccc3C2C1 (stereo not drawn) [Mianserin HCl] | 57.17 |
| COc1ccccc1OCC(O)CN1CCN(CC(=O)Nc2c(C)cccc2C)CC1 (stereo not drawn) [Ranolazine] | 67.8 |
| C#C[C@]1(O)C=C[C@H]2[C@@H]3CCC4=CC(=O)CC[C@@H]4[C@H]3CC[C@@]21CC [Gestodene] | 69.63 |
| COc1cc([C@@H]2c3cc4c(cc3[C@@H](O[C@@H]3O[C@@H]5CO[C@@H](c6cccs6)O[C@H]5[C@H](O)[C@H]3O)[C@H]3COC(=O)[C@H]23)OCO4)cc(OC)c1O [Teniposide] | 34.75 |
| CC[C@H]1OC(=O)[C@H](C)[C@@H](O[C@H]2C[C@@](C)(OC)[C@@H](O)[C@H](C)O2)[C@H](C)[C@@H](O[C@@H]2O[C@H](C)C[C@H](N(C)C)[C@H]2O)[C@](C)(O)C[C@@H](C)CN(C)[C@H](C)[C@@H](O)[C@]1(C)O [Azithromycin] | 33.47 |

====

Test system: HT29
Condition Details: 72 h, relative to DMSO; 10 µM
Structures can show the parent of a compound that is named as a salt. Residues, ends and D or L forms follow the SMILES beside them.

| Compound | Relative cell viability (%) (%) |
| --- | --- |
| Cc1ccccc1C(OCCN(C)C)c1ccccc1 (stereo not shown) [Orphenadrine Citrate] | 102.4 |
| O=C[C@H](O)[C@@H](O)[C@H](O)CO [Xylose] | 114.9 |
| CC(C(=O)O)c1cccc(Oc2ccccc2)c1 (stereo not shown) [Fenoprofen Calcium] | 99.58 |
| CCc1nc(N)nc(N)c1-c1ccc(Cl)cc1 [Pyrimethamine] | 41.03 |
| Cc1ncc([N+](=O)[O-])n1CCO [Metronidazole] | 113.4 |
| CC(/C=C1\SC(=S)N(CC(=O)O)C1=O)=C\c1ccccc1 [Epalrestat] | 135.7 |
| CCC(COC(=O)c1cc(OC)c(OC)c(OC)c1)(c1ccccc1)N(C)C (stereo not shown) [Trimebutine] | 107.3 |
| COC(=O)[C@H](Cc1ccccc1)NC(=O)[C@@H](N)CC(=O)O [Aspartame] (H-Asp-Phe-OMe) | 199.9 |
| Cc1cccc(C(C)c2cnc[nH]2)c1C (stereo not shown) [Medetomidine HCl] | 57.77 |
| Clc1ccc(COC(Cn2ccnc2)c2ccc(Cl)cc2Cl)c(Cl)c1 (stereo not shown) [Miconazole Nitrate] | 184.3 |
